test system: MCF7; experiment: Antiproliferative activity against human MCF7 cells after 48 hrs by MTT assay; assay type: functional, cell-based; conditions: MCF7, 48 h
PARAMETER MEASURED: IC50 (µg/mL)

Consider the reported IC50 for these compounds:
Nc1nc(N2CCCC2)sc1C(=O)/C=C/c1ccc(Cl)cc1Cl; 12.6
Nc1nc(N2CCCC2)sc1C(=O)/C=C/c1ccc(Br)cc1; 41.3

P: Nc1nc(N2CCCC2)sc1C(=O)/C=C/c1ccccc1
Q: Nc1nc(N2CCCCC2)sc1C(=O)/C=C/c1ccc([N+](=O)[O-])cc1
For the two items P and Q , which reports the higher IC50 value? Respond using the label that marks the chosen record.
P
(P: 21.7 µg/mL, Q: 14.6 µg/mL)

* * *

test system: HepG2; experiment: Antiproliferative activity against human HepG2 cells after 48 hrs by MTT assay; type: functional, cell-based; conditions: HepG2, 48 h
PARAMETER MEASURED: IC50 (µg/mL)

Consider the reported IC50 for these compounds:
Nc1nc(N2CCOCC2)sc1C(=O)/C=C/c1ccc([N+](=O)[O-])cc1; 27.6
Nc1nc(N2CCCC2)sc1C(=O)/C=C/c1ccc(Cl)cc1Cl; 10.6
Nc1nc(N2CCCC2)sc1C(=O)/C=C/c1ccc(Cl)cc1; 27

P: Nc1nc(N2CCCCC2)sc1C(=O)/C=C/c1ccc([N+](=O)[O-])cc1
Q: Nc1nc(N2CCCC2)sc1C(=O)/C=C/c1ccc([N+](=O)[O-])cc1
For the two items P and Q , which reports the higher IC50 value? Respond using the label that marks the chosen record.
Q
(Q: 23.5 µg/mL, P: 15.4 µg/mL)

* * *

test system: SW480; assay: Antiproliferative activity against human SW480 cells after 48 hrs by MTT assay; format: functional, cell-based; conditions: SW480, 48 h
PARAMETER MEASURED: IC50 (µg/mL)

Consider the reported IC50 for these compounds:
Nc1nc(N2CCCC2)sc1C(=O)/C=C/c1ccc(Br)cc1; 15.8
Nc1nc(N2CCOCC2)sc1C(=O)/C=C/c1ccc(Cl)cc1Cl; 33.2
Nc1nc(N2CCOCC2)sc1C(=O)/C=C/c1ccc(Br)cc1; 32.7

A: Nc1nc(N2CCOCC2)sc1C(=O)/C=C/c1ccc([N+](=O)[O-])cc1
B: Nc1nc(N2CCCC2)sc1C(=O)/C=C/c1ccc(Cl)cc1Cl
// pick min by IC50: A , B Respond using the label that marks the chosen record.
B

* * *

In this section we review reported Activity values for a set of compounds.
system: HepG2; assay: Induction of apoptosis in human HepG2 cells assessed as late apoptotic cells at IC50 after 48 hrs by Annexin V-FITC/propidium iodide staining based flow cytometry (reference value: 18.1%); format: functional
Write down the numeric answer in % and omit the unit.

Consider the reported Activity for these compounds:
Nc1nc(N2CCCCC2)sc1C(=O)/C=C/c1ccc([N+](=O)[O-])cc1; 27.7
Nc1nc(N2CCCCC2)sc1C(=O)/C=C/c1ccc(Cl)cc1; 34.4
Nc1nc(N2CCCC2)sc1C(=O)/C=C/c1ccc(Cl)cc1Cl; 13.2

Next:
Consider the compound COc1cc([C@@H]2c3cc4c(cc3[C@@H](O[C@@H]3O[C@@H]5CO[C@@H](C)O[C@H]5[C@H](O)[C@H]3O)[C@H]3COC(=O)[C@H]23)OCO4)cc(OC)c1O [ETOPOSIDE] tested on HepG2; state its Activity.
24.7

* * *

system: SW480; assay: Antiproliferative activity against human SW480 cells after 48 hrs by MTT assay; format: functional, cell-based; details: SW480, 48 h
PARAMETER MEASURED: IC50 (µg/mL)

Consider the reported IC50 for these molecules:
Nc1nc(N2CCCCC2)sc1C(=O)/C=C/c1ccc(Cl)cc1Cl; 36.8
COc1ccccc1/C=C/C(=O)c1sc(N2CCCC2)nc1N; 17
Nc1nc(N2CCOCC2)sc1C(=O)/C=C/c1ccccc1; 30.5
Nc1nc(N2CCCCC2)sc1C(=O)/C=C/c1ccc(Br)cc1; 31.6
Nc1nc(N2CCOCC2)sc1C(=O)/C=C/c1ccc(Cl)cc1; 33.4
Nc1nc(N2CCCCC2)sc1C(=O)/C=C/c1ccc([N+](=O)[O-])cc1; 25.6
Nc1nc(N2CCCCC2)sc1C(=O)/C=C/c1ccc(Cl)cc1; 29.4
Nc1nc(N2CCCC2)sc1C(=O)/C=C/c1ccc([N+](=O)[O-])cc1; 22.4
Nc1nc(N2CCCCC2)sc1C(=O)/C=C/c1ccccc1; 28.1

1: Nc1nc(N2CCCC2)sc1C(=O)/C=C/c1ccc(Cl)cc1
2: Nc1nc(N2CCCC2)sc1C(=O)/C=C/c1ccccc1
// pick min by IC50: 1 , 2 Respond using the label that marks the chosen record.
1
(1: 19.9 µg/mL, 2: 31.7 µg/mL)

* * *

test system: MCF7; test: Antiproliferative activity against human MCF7 cells after 48 hrs by MTT assay; type: functional, cell-based; conditions: MCF7, 48 h
PARAMETER MEASURED: IC50 (µg/mL)

Consider the reported IC50 for these compounds:
Nc1nc(N2CCOCC2)sc1C(=O)/C=C/c1ccccc1; 34.7
Nc1nc(N2CCCC2)sc1C(=O)/C=C/c1ccc([N+](=O)[O-])cc1; 26.3
Nc1nc(N2CCCCC2)sc1C(=O)/C=C/c1ccccc1; 22.4
Nc1nc(N2CCCCC2)sc1C(=O)/C=C/c1ccc(Cl)cc1; 19.5
Nc1nc(N2CCCCC2)sc1C(=O)/C=C/c1ccc(Br)cc1; 25.6

P: Nc1nc(N2CCCC2)sc1C(=O)/C=C/c1ccc(Cl)cc1
Q: Nc1nc(N2CCOCC2)sc1C(=O)/C=C/c1ccc([N+](=O)[O-])cc1
For the two items P and Q , which reports the higher IC50 value? Respond using the label that marks the chosen record.
Q

* * *

test system: HepG2; assay: Antiproliferative activity against human HepG2 cells after 48 hrs by MTT assay; format: functional, cell-based; details: HepG2, 48 h
PARAMETER MEASURED: IC50 (µg/mL)

P: Nc1nc(N2CCOCC2)sc1C(=O)/C=C/c1ccc(Cl)cc1Cl
Q: Nc1nc(N2CCOCC2)sc1C(=O)/C=C/c1ccccc1
R: Nc1nc(N2CCOCC2)sc1C(=O)/C=C/c1ccc(Cl)cc1
Sort the items above by IC50, starting with the smallest value. Please respond by ranking the labels in the order requested.
P, Q, R
(P: 12.8 µg/mL, Q: 21.4 µg/mL, R: 35.8 µg/mL)

* * *

system: MCF7; test: Antiproliferative activity against human MCF7 cells after 48 hrs by MTT assay; format: functional, cell-based; details: MCF7, 48 h
PARAMETER MEASURED: IC50 (µg/mL)

Nc1nc(N2CCCCC2)sc1C(=O)/C=C/c1ccc(Cl)cc1Cl; 25.5
Nc1nc(N2CCOCC2)sc1C(=O)/C=C/c1ccc(Cl)cc1Cl; 18.6

* * *

tested on: HepG2; assay: Antiproliferative activity against human HepG2 cells after 48 hrs by MTT assay; format: functional, cell-based; conditions: HepG2, 48 h
PARAMETER MEASURED: IC50 (µg/mL)

Consider the reported IC50 for these compounds:
COc1ccccc1/C=C/C(=O)c1sc(N2CCCC2)nc1N; 35.1
Nc1nc(N2CCCCC2)sc1C(=O)/C=C/c1ccc(Cl)cc1; 12
Nc1nc(N2CCCC2)sc1C(=O)/C=C/c1ccc(Br)cc1; 30
Nc1nc(N2CCCCC2)sc1C(=O)/C=C/c1ccc(Cl)cc1Cl; 22.9
Nc1nc(N2CCCCC2)sc1C(=O)/C=C/c1ccccc1; 16.6

1: Nc1nc(N2CCCCC2)sc1C(=O)/C=C/c1ccc(Br)cc1
2: Nc1nc(N2CCCC2)sc1C(=O)/C=C/c1ccccc1
// pick min by IC50: 1 , 2 Respond using the label that marks the chosen record.
1

* * *

test system: MCF7; test: Antiproliferative activity against human MCF7 cells after 48 hrs by MTT assay; assay type: functional, cell-based; conditions: MCF7, 48 h
PARAMETER MEASURED: IC50

Consider the reported IC50 for these compounds:
Nc1nc(N2CCOCC2)sc1C(=O)/C=C/c1ccc(Cl)cc1; > 50 µg/mL
Nc1nc(N2CCOCC2)sc1C(=O)/C=C/c1ccc(Br)cc1; > 50 µg/mL

Next:
Return IC50 (reported value) for this compound: COc1ccccc1/C=C/C(=O)c1sc(N2CCCC2)nc1N
> 50 µg/mL
